test system: Escherichia coli TOP10; assay: shrunken log2 fold change of peptide-encoding DNA abundance (4.5 h post-induction vs induction); higher = less antimicrobial activity (less host growth inhibition); conditions: time post-induction: 4.5 h; library: site-saturation at positions 5, 18, 19, 20
Readout kind: shrunken log2 fold change

Consider the following illustrative entries.
[
  {
    "Query sequence": "RRIRQRPPRLPRPRPRPLKRPRP",
    "Tested on": "Escherichia coli TOP10",
    "Readout kind": "shrunken log2 fold change",
    "Result": -0.0432
  },
  {
    "Query sequence": "RRIRCRPPRLPRPRPRPYELPRP",
    "Tested on": "Escherichia coli TOP10",
    "Readout kind": "shrunken log2 fold change",
    "Result": -0.18
  },
  {
    "Query sequence": "RRIRLRPPRLPRPRPRPREKPRP",
    "Tested on": "Escherichia coli TOP10",
    "Readout kind": "shrunken log2 fold change",
    "Result": 0.15
  }
]

Please fill in: shrunken log2 fold change reported for "RRIRYRPPRLPRPRPRPLFKPRP" = -0.646

The measured shrunken log2 fold change associated with "RRIRNRPPRLPRPRPRPGFDPRP" reads 0.189

###

test system: Escherichia coli TOP10; assay: shrunken log2 fold change of peptide-encoding DNA abundance (4.5 h post-induction vs induction); higher = less antimicrobial activity (less host growth inhibition); details: time post-induction: 4.5 h; library: site-saturation at positions 5, 18, 19, 20
A collection of sequences and their measured shrunken log2 fold change
Just the number.

Example sequences with recorded shrunken log2 fold change:
[
  {
    "Query sequence": "RRIRRRPPRLPRPRPRPIACPRP",
    "Readout kind": "shrunken log2 fold change",
    "Numeric readout": 0.0283
  },
  {
    "Query sequence": "RRIRKRPPRLPRPRPRPKTKPRP",
    "Readout kind": "shrunken log2 fold change",
    "Numeric readout": 0.411
  }
]

Entry "RRIRNRPPRLPRPRPRPWLVPRP" ; shrunken log2 fold change = -0.151

// recorded shrunken log2 fold change for "RRIRQRPPRLPRPRPRPVCHPRP" : -0.13

shrunken log2 fold change in this record for "RRIRERPPRLPRPRPRPCLLPRP" : -0.0977

Sure, the documented shrunken log2 fold change for "RRIRFRPPRLPRPRPRPHIIPRP" is -0.879

Notebook: "RRIRTRPPRLPRPRPRPQWHPRP" , shrunken log2 fold change read as -0.461

Lab note: measured shrunken log2 fold change of "RRIRTRPPRLPRPRPRPKKRPRP" was 0.0216

shrunken log2 fold change measured on "RRIRGRPPRLPRPRPRPENVPRP" = 0.328

# shrunken log2 fold change (sequence: "RRIRWRPPRLPRPRPRPMMVPRP" ) is 0.0168

// sample "RRIRIRPPRLPRPRPRPHPHPRP" , its shrunken log2 fold change was -0.496

Entry "RRIRQRPPRLPRPRPRPKTPPRP" — recorded shrunken log2 fold change = -0.0134

###

tested on: Escherichia coli TOP10; assay: shrunken log2 fold change of peptide-encoding DNA abundance (4.5 h post-induction vs induction); higher = less antimicrobial activity (less host growth inhibition); conditions: time post-induction: 4.5 h; library: site-saturation at positions 5, 18, 19, 20
Readout kind: shrunken log2 fold change

As a guide, the following entries are already answered.
[
  {
    "Query sequence": "RRIRRRPPRLPRPRPRPNWIPRP",
    "shrunken log2 fold change": 0.259
  },
  {
    "Query sequence": "RRIRMRPPRLPRPRPRPSSDPRP",
    "shrunken log2 fold change": 0.111
  },
  {
    "Query sequence": "RRIRTRPPRLPRPRPRPGVCPRP",
    "shrunken log2 fold change": 0.442
  },
  {
    "Query sequence": "RRIRERPPRLPRPRPRPTLEPRP",
    "shrunken log2 fold change": 0.034
  },
  {
    "Query sequence": "RRIRQRPPRLPRPRPRPIVGPRP",
    "shrunken log2 fold change": 0.0288
  },
  {
    "Query sequence": "RRIRWRPPRLPRPRPRPLATPRP",
    "shrunken log2 fold change": 0.766
  },
  {
    "Query sequence": "RRIRERPPRLPRPRPRPCWEPRP",
    "shrunken log2 fold change": -0.0225
  },
  {
    "Query sequence": "RRIRERPPRLPRPRPRPGFMPRP",
    "shrunken log2 fold change": -0.136
  }
]

Tested on Escherichia coli TOP10, the item "RRIRMRPPRLPRPRPRPVFWPRP" showed shrunken log2 fold change equal to 0.884

Entry "RRIRLRPPRLPRPRPRPVDYPRP" : shrunken log2 fold change on Escherichia coli TOP10 = -0.434

Tested system Escherichia coli TOP10; shrunken log2 fold change recorded for "RRIRHRPPRLPRPRPRPAHDPRP" was 0.0776

Observed shrunken log2 fold change on Escherichia coli TOP10, entry "RRIRARPPRLPRPRPRPQGAPRP" , equals 0.191

For the sequence "RRIRYRPPRLPRPRPRPITNPRP" , the measured shrunken log2 fold change on Escherichia coli TOP10 was -0.544

Item "RRIRARPPRLPRPRPRPTTFPRP" ; assay system Escherichia coli TOP10; shrunken log2 fold change reported as 0.177

Bench note, Escherichia coli TOP10: entry "RRIRYRPPRLPRPRPRPSFEPRP" , its shrunken log2 fold change = -0.689

Short answer on Escherichia coli TOP10 for "RRIRSRPPRLPRPRPRPCALPRP" , shrunken log2 fold change: -0.242

Query "RRIRYRPPRLPRPRPRPYVQPRP" on Escherichia coli TOP10; shrunken log2 fold change returned: -1.25

Record "RRIRKRPPRLPRPRPRPGRNPRP" ; system Escherichia coli TOP10; shrunken log2 fold change = -0.105

Measured shrunken log2 fold change (Escherichia coli TOP10), entry "RRIRRRPPRLPRPRPRPQLMPRP" : 0.247

Form field shrunken log2 fold change for item "RRIRTRPPRLPRPRPRPMMNPRP" on Escherichia coli TOP10: 0.0667

Reading of shrunken log2 fold change for "RRIRLRPPRLPRPRPRPIWQPRP" with Escherichia coli TOP10: 0.0488

The sequence "RRIRQRPPRLPRPRPRPPSQPRP" , tested on Escherichia coli TOP10, showed shrunken log2 fold change of 0.0863

Considering "RRIRSRPPRLPRPRPRPSCVPRP" , its shrunken log2 fold change with Escherichia coli TOP10 was recorded as -0.152

shrunken log2 fold change for Escherichia coli TOP10 with input "RRIRWRPPRLPRPRPRPACQPRP" equals 0.015

Measured shrunken log2 fold change (Escherichia coli TOP10), entry "RRIRLRPPRLPRPRPRPHYPPRP" : -0.736

Escherichia coli TOP10 data for "RRIRARPPRLPRPRPRPGIWPRP" ; its shrunken log2 fold change: 0.168

Fill in: Escherichia coli TOP10 shrunken log2 fold change for "RRIRLRPPRLPRPRPRPPHRPRP" = 0.182

GET /values?item= "RRIRPRPPRLPRPRPRPCMMPRP" &system= Escherichia coli TOP10 returns shrunken log2 fold change: -0.467

Measured shrunken log2 fold change (Escherichia coli TOP10), entry "RRIRVRPPRLPRPRPRPVKKPRP" : 0.02

###

Each entry below carries its recorded shrunken log2 fold change.
tested on: Escherichia coli TOP10; assay: shrunken log2 fold change of peptide-encoding DNA abundance (4.5 h post-induction vs induction); higher = less antimicrobial activity (less host growth inhibition); settings: time post-induction: 4.5 h; library: site-saturation at positions 5, 18, 19, 20

Field: example entries. Status: answers known.
[
  {
    "Query sequence": "RRIRSRPPRLPRPRPRPGLPPRP",
    "Tested on": "Escherichia coli TOP10",
    "shrunken log2 fold change": 0.225
  },
  {
    "Query sequence": "RRIRGRPPRLPRPRPRPEACPRP",
    "Tested on": "Escherichia coli TOP10",
    "shrunken log2 fold change": 1.11
  },
  {
    "Query sequence": "RRIRYRPPRLPRPRPRPNHRPRP",
    "Tested on": "Escherichia coli TOP10",
    "shrunken log2 fold change": -0.767
  }
]

Given item "RRIRQRPPRLPRPRPRPVMVPRP" , the value recorded as its shrunken log2 fold change is 0.11

The measured shrunken log2 fold change associated with "RRIRWRPPRLPRPRPRPLEMPRP" reads 0.373

Lab note: "RRIRARPPRLPRPRPRPHGDPRP" gave shrunken log2 fold change of 0.362

###

system: Escherichia coli TOP10; assay: shrunken log2 fold change of peptide-encoding DNA abundance (4.5 h post-induction vs induction); higher = less antimicrobial activity (less host growth inhibition); conditions: time post-induction: 4.5 h; library: site-saturation at positions 5, 18, 19, 20;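 also: peptides expressed intracellularly from a pBAD plasmid library in pooled LB shake-flask culture, induced with 0.3% L-arabinose, DNA abundance read by NGS, three biological replicates, DESeq2 with apeglm shrinkage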
Could you label it 1 (yes) if measured shrunken log2 fold change is -0.1 or higher, and 0 (no) otherwise?

Past entries and their recorded results:
[
  {
    "Query sequence": "RRIRMRPPRLPRPRPRPIVHPRP",
    "Qualitative label": "0 (no)"
  },
  {
    "Query sequence": "RRIRARPPRLPRPRPRPICFPRP",
    "Qualitative label": "1 (yes)"
  },
  {
    "Query sequence": "RRIRLRPPRLPRPRPRPYMCPRP",
    "Qualitative label": "0 (no)"
  }
]

// query State whether the measured shrunken log2 fold change reaches -0.1, counting equality as reaching it, for "RRIRQRPPRLPRPRPRPKEVPRP"
// result 1 (yes)

// query State whether the measured shrunken log2 fold change reaches -0.1, counting equality as reaching it, for "RRIRRRPPRLPRPRPRPDHIPRP"
// result 1 (yes)

// query Check if shrunken log2 fold change >= -0.1 (inclusive). Item: "RRIRSRPPRLPRPRPRPLMHPRP"
// result 0 (no)

// query Form field: shrunken log2 fold change at least -0.1? Entry: "RRIRFRPPRLPRPRPRPKGVPRP"
// result 1 (yes)

// query Quick check, shrunken log2 fold change >= -0.1? "RRIRKRPPRLPRPRPRPIHVPRP"
// result 1 (yes)
